// data source = PubChem BioAssay (NCI)

- System: HCT-15 colon
- Experiment: NCI tumour cell line growth inhibition, 48 h
Property Label: TGI

>  <Compound>
CCOC(=O)c1c(-c2ccccc2)oc(=O)c(Cc2cccc3cccnc23)c1-c1ccccc1

>  <TGI>
> 10 µM

$$$$
>  <Compound>
O=[N+]([O-])c1nccn1COCCI

>  <TGI>
> 100 µM

$$$$
>  <Compound>
CC(C)OP(=O)(c1ccccc1)c1ccc2c(c1)OCCOCCOCCOCCO2 (stereo not given)

>  <TGI>
> 100 µM

$$$$

// lookup TGI for CCn1ncc(Oc2c(Cl)cc(N)cc2Cl)c(Cl)c1=O
> 100 µM

Likewise for COc1cc2c(cc1OCCCNC(=O)/C=C1/C[C@H]3C=Nc4cc(OCc5ccccc5)c(OC)cc4C(=O)N3C1)NC(=O)[C@@H]1CCCN1C2=O ?
> 100 µM
